Source: ChEMBL document CHEMBL3991601

biological target: Calcium/calmodulin-dependent protein kinase kinase 2 (Homo sapiens); also: in the data inactive means no Kd found up to 30 µM
Sequence (Q96RR4 whole entry): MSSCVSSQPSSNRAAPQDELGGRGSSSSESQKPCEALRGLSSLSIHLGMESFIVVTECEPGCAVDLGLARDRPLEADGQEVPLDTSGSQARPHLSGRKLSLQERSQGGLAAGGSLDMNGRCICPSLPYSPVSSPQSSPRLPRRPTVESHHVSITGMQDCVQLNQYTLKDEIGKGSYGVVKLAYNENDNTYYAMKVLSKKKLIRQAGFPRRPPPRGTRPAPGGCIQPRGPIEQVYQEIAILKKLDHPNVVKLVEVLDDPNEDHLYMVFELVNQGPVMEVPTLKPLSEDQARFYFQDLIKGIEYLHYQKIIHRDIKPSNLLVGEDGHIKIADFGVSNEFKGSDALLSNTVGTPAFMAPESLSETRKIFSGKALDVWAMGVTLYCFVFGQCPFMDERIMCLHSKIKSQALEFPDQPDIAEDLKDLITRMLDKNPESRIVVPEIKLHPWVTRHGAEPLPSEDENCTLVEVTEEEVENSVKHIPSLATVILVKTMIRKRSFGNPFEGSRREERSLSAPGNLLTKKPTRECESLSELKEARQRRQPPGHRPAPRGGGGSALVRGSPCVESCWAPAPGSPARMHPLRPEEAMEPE
Calls of active or inactive are those of the source.
endpoint: Kd

>>> df
                             molecule_smiles  endpoint          meas_value
 0  FC(F)(F)c1ccc(CNc2ccc(Cc3c[nH]c4ncc(Cl)cc34)cn2)cn1        Kd  > 30 µM (inactive)
 1  O=C(Nc1ccc(OC(F)(F)F)cc1)c1sccc1NCc1ccnc2ccccc12        Kd  > 30 µM (inactive)
 2  NC(=O)c1ccc(N(C(N)=O)c2c(F)cccc2F)nc1-c1ccc(F)cc1F        Kd  > 30 µM (inactive)
 3          O=S(=O)(c1cccc2cnccc12)N1CCCNCC1        Kd  > 30 µM (inactive)
 4  CC(C)(O)CC(=O)NCCn1ccc2ncnc(Nc3ccc(Oc4cccc(C(F)(F)F)c4)c(Cl)c3)c21        Kd  > 30 µM (inactive)
 5  C[C@]1(O)C[C@@H](c2nc(-c3ccc4ccc(-c5ccccc5)nc4c3)c3c(N)nccn32)C1        Kd  > 30 µM (inactive)
 6  COc1cccc2cc(-c3nc([C@H]4CC[C@H](C(=O)O)CC4)n4ncnc(N)c34)[nH]c12        Kd  > 30 µM (inactive)
 7  C[C@@H]1COC(Nc2ccc3ncnc(Nc4ccc(OCc5nccs5)c(Cl)c4)c3c2)=N1        Kd  > 30 µM (inactive)
 8  O=C(O)c1ccc2c(c1)nc(Nc1cccc(Cl)c1)c1ccncc12        Kd  > 30 µM (inactive)
 9    O=C(NC[C@H](O)CO)c1ccncc1Nc1ccc(I)cc1F        Kd  > 30 µM (inactive)
10  CC[C@@](C)(Nc1ccnc(-c2c[nH]c3ncccc23)n1)C(=O)NCC(F)(F)F        Kd  > 30 µM (inactive)
11  Cc1ccc(C(=O)Nc2ccc(Oc3cc4cnn(C)c4cc3-c3cn[nH]c3)c(F)c2)c(=O)n1-c1ccc(F)cc1        Kd  > 30 µM (inactive)
12  CC1(COc2ccc3c(c2)ncn3-c2ccc3cccc(N4CCC(N)CC4)c3n2)COC1        Kd   0.135 µM (active)
13  Cc1c(NC(=O)OC[C@@H]2COCCN2)cn2ncnc(Nc3ccc4c(cnn4Cc4cccc(F)c4)c3)c12        Kd  > 30 µM (inactive)
14  CN1CCN(c2nc(C3=C(c4c[nH]c5ccccc45)C(=O)NC3=O)c3ccccc3n2)CC1        Kd  > 30 µM (inactive)
15  COc1cc2ncnc3c2cc1OCCCCCN(C)Cc1ccc(Br)cc1N3        Kd  > 30 µM (inactive)
16  CCN1CCN(Cc2ccc(Nc3ncc(F)c(-c4cc(F)c5nc(C)n(C(C)C)c5c4)n3)nc2)CC1        Kd     2.6 µM (active)

----------
target: AarF domain-containing protein kinase 1 (Homo sapiens, UniProt Q86TW2); also: in the data inactive means no Kd found up to 30 µM
Sequence (Q86TW2 whole entry, the tested form may be a part): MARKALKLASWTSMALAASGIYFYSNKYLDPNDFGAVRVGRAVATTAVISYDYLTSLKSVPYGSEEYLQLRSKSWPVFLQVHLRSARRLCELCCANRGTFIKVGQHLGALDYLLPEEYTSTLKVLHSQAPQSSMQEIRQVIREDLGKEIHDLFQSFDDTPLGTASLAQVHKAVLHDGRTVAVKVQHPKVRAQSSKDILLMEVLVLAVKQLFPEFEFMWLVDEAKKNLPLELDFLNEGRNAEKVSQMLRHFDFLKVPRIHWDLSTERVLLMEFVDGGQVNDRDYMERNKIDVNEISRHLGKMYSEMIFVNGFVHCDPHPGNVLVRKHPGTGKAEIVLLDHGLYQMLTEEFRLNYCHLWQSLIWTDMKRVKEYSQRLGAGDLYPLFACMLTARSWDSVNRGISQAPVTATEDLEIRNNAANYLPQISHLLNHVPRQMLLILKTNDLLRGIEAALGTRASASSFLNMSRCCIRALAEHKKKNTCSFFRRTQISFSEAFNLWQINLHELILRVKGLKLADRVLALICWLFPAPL
The source made the active and inactive calls.
Possible outcomes: 1 (yes) = active, 0 (no) = inactive

>>> df
                                   molecule    group
0  COc1cccc2cc(-c3nc([C@H]4CC[C@H](C(=O)O)CC4)n4ncnc(N)c34)[nH]c12   0 (no)
1  CC[C@@](C)(Nc1ccnc(-c2c[nH]c3ncccc23)n1)C(=O)NCC(F)(F)F   0 (no)
2  Cc1cc(-c2cc(OC(=O)c3ccccc3)ccc2Cl)cc2nnc(Nc3ccc(OCCN4CCCC4)cc3)nc12   0 (no)
3  CCN(CCCOc1ccc2c(Nc3cc(CC(=O)Nc4cccc(F)c4)n[nH]3)ncnc2c1)CCOP(=O)(O)O   0 (no)
4  COc1cc2ncnc(Nc3ccc(F)c(Cl)c3)c2cc1NC(=O)/C=C/CN1CCCCC1 [DACOMITINIB ANHYDROUS]   0 (no)
5  CCN1CCN(Cc2ccc(Nc3ncc(F)c(-c4cc(F)c5nc(C)n(C(C)C)c5c4)n3)nc2)CC1  1 (yes)
6  COCCN1CCN(Cc2ccc(-c3n[nH]c4c3C(=O)c3c(NC(=O)NN5CCOCC5)cccc3-4)cc2)CC1   0 (no)
